Would you kindly list IC50 for each of these compounds?
tgt: Nitric oxide synthase, inducible (Mus musculus)
Sequence (P29477 whole entry): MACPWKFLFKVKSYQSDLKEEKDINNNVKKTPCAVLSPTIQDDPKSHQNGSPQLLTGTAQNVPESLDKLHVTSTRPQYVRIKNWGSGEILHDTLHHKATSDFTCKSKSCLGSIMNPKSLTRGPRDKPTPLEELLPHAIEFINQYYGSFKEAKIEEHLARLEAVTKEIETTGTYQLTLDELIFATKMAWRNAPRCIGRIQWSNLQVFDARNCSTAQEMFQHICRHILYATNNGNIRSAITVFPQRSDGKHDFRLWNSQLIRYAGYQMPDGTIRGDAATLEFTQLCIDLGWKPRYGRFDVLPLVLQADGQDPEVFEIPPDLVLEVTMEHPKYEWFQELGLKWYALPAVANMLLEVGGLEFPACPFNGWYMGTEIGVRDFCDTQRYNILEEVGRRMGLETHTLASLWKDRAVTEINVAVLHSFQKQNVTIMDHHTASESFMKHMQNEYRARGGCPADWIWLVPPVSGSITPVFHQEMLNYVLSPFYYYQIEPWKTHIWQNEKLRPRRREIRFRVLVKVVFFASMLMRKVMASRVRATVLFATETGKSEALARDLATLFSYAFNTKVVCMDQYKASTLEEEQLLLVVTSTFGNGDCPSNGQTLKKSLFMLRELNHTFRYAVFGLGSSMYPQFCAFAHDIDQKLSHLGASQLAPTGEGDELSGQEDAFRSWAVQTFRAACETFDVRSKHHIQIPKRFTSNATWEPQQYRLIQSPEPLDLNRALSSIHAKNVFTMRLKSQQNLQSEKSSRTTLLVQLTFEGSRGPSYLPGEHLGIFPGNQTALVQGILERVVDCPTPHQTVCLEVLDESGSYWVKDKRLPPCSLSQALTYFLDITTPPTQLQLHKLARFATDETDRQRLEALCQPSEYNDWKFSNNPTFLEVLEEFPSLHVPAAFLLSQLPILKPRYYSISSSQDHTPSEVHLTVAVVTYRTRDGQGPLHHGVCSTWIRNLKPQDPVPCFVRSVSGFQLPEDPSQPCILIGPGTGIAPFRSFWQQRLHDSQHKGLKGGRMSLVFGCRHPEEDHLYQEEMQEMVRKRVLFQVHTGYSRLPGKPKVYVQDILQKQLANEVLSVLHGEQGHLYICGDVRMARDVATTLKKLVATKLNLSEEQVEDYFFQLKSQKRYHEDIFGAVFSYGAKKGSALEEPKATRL
run.description: Inhibition of iNOS-mediated NO production in LPS-stimulated mouse RAW264.7 cells after 24 hrs by Griess reagent method
Answers are plain numbers, in µM.

- COc1cc2c([nH]c3ccc(O)cc32)c(Cc2ccc(O)cc2)n1 [DAIBUCARBOLINE A]: 18.4
- N=C(NCCC[C@H](N)C(=O)O)N[N+](=O)[O-] [NITROARGININE]: 144
- COc1cc(O)c2c(c1)O[C@H](c1ccc(O)cc1)CC2=O [SAKURANETIN]: 19.6
- C=C[C@@]1(C)Cc2occ(C)c2[C@@H]2OC(=O)C(=C)[C@@H]21 [ISOLINDERALACTONE]: 0.3
- N=C(N)NN [PIMAGEDINE]: 28.5

# evaluate next
Q: GET IC50 where system = Nitric oxide synthase, inducible (Mus musculus) and item = COc1cc(O)c2c(=O)c(-c3ccc(O)cc3)coc2c1 [PRUNETIN]
Result: 10.5
